Just for reference, paper PMC7758422 is where these values come from.

Tested on: glioma cell line U87
Assay type: cell-based
condition.set: CCK-8, 96 h treatment, 0.39-50 μM, OD 450 nm; read-out: IC50 (μM) U87
Bridge positions count the residues as written; N and C are the ends. Square brackets hold non-standard residues; d marks the D form. Peptide text beside a SMILES is read from it. R8 = C=CCCCCCC[C@@](C)(N)C(=O)O; S5 = C=CCCC[C@](C)(N)C(=O)O
Response field label takes Y when IC50 is strictly below 8 µM and N in all other cases.

{"columns": ["molecule", "system.under.test", "label.value"],
 "data": [
  ["CC[C@H](C)[C@H](NC(=O)[C@@H](NC(=O)[C@H](C)NC(=O)[C@H](Cc1ccccc1)NC(=O)[C@H](CC(C)C)NC(=O)CNC(C)=O)C(C)C)C(=O)N[C@@H](CCCCN)C(=O)N[C@@H](CCCCN)C(=O)N[C@@]1(C)CCCC=CCCC[C@@](C)(C(=O)N[C@@H](CCCCN)C(=O)NCC(=O)N[C@@H](CC(C)C)C(N)=O)NC(=O)[C@H](C(C)C)NC(=O)[C@H](CO)NC(=O)[C@H](C)NC1=O [A4K14-citropin1.1-4] (Ac-GLFAVIKK[S5]ASV[S5]KGL-NH2; staple 9-13)", "glioma cell line U87", "Y"],
  ["CC[C@H](C)[C@@H]1NC(=O)[C@H](C(C)C)NC(=O)[C@H](C)NC(=O)[C@H](Cc2ccccc2)NC(=O)[C@](C)(NC(=O)CNC(C)=O)CCCCCCC=CCCC[C@@](C)(C(=O)N[C@@H](C)C(=O)N[C@@H](CO)C(=O)N[C@H](C(=O)N[C@H](C(=O)N[C@@H](CCCCN)C(=O)NCC(=O)N[C@@H](CC(C)C)C(N)=O)[C@@H](C)CC)C(C)C)NC(=O)[C@H](CCCCN)NC(=O)[C@H](CCCCN)NC1=O [A4K14-citropin1.1-6] (Ac-G[R8]FAVIKK[S5]ASVIKGL-NH2; staple 2-9)", "glioma cell line U87", "N"],
  ["CC(=O)NCC(=O)N[C@@H](CC(C)C)C(=O)N[C@@H](Cc1ccccc1)C(=O)N[C@@H](C)C(=O)N[C@H](C(=O)N[C@]1(C)CCCCCCC=CCCC[C@@](C)(C(=O)N[C@@H](CCCCN)C(=O)NCC(=O)N[C@@H](CC(C)C)C(N)=O)NC(=O)[C@H](C(C)C)NC(=O)[C@H](CO)NC(=O)[C@H](C)NC(=O)[C@H](C(C)C)NC(=O)[C@H](CCCCN)NC(=O)[C@H](CCCCN)NC1=O)C(C)C [A4K14-citropin1.1-7] (Ac-GLFAV[R8]KKVASV[S5]KGL-NH2; staple 6-13)", "glioma cell line U87", "N"],
  ["CC[C@H](C)[C@H](NC(=O)[C@@H](NC(=O)[C@H](CO)NC(=O)[C@]1(C)CCCC=CCCC[C@](C)(NC(=O)[C@@H](NC(=O)[C@H](C)NC(=O)[C@H](Cc2ccccc2)NC(=O)[C@H](CC(C)C)NC(=O)CNC(C)=O)C(C)C)C(=O)N[C@@H](CCCCN)C(=O)N[C@@H](CCCCN)C(=O)N[C@@H](C(C)C)C(=O)N1)C(C)C)C(=O)N[C@@H](CCCCN)C(=O)NCC(=O)N[C@@H](CC(C)C)C(N)=O [A4K14-citropin1.1-3] (Ac-GLFAV[S5]KKV[S5]SVIKGL-NH2; staple 6-10)", "glioma cell line U87", "N"]
]}
